- EXPERIMENT SUMMARY: folding stability dG unfold from trypsin proteolysis; higher = more stable
Would you mind telling me the reported folding stability dG unfold of each entry?
Answer as a quantity: numeral, then unit.

Would you please look over these solved cases?
ITEM SEQUENCE	folding stability dG unfold
SAGGSAMDLKIKKKERDPPNGTKKLTVEVPGWEVEINIERNPDGPYKIEIYAPNPAAKNAIKEFIKSAGGSA [r15_42_TrROS]	-0.275 kcal/mol
SAGGSAGGSAGGMYRIKVTTKDGRERVIEVKPGEEITLEELRKAGLSEEEIERVEIEEVSAGGSAGGSAGGS [r10_565_TrROS_Hall]	1.89 kcal/mol
SAGGSAGGSAGLDNIKPEELKKLFPGYKVYLLKVEEVGGKLKVDVKILKYNPSTNTWTPESAGGSAGGSAGG [r11_20_TrMRF]	1.13 kcal/mol
SAGGSAGGSAMSEEEKKKKKPKLEIKVKVEFTVDENGTVRAKVTFEDGTTLEVEIKLPPELLSAGGSAGGSA [r18_192_TrROS_Hall]	1.92 kcal/mol
SAGGSAGGSKKKIKVIIEVEVNGKKYKIEVEAETEEEAKKKAEEAIKELKKKFPNVKIKKIKPSAGGSAGGS [r12_230_TrROS_Hall]	2.38 kcal/mol
SAGGSAGGSAGGMKVIKIEDVEKVKAEAKKNGIKVTYKKENDGEIIAYIEKIPKSIKNKSAGGSAGGSAGGS [r10_218_JUSTAS]	-0.832 kcal/mol

Okay, now this sequence:
Prompt: What value of folding stability dG unfold has been recorded for this entry: MRLRLTFRLPDGTEFRVERVEVLRVEPRGDRVVIPVRAYFTPEERRRLEELIPGLRDRPPLVVEVEIVLTGS [r1_35_TrMRF]
Response: 3.05 kcal/mol

###

- EXPERIMENT SUMMARY: folding stability dG unfold (combined trypsin and chymotrypsin); higher = more stable
TEST READOUT: folding stability dG unfold

ITEM SEQUENCE	RESULT
SAGTIRLNGLELEVDIEWWPEHGYITINVTITWPNGRTMMMQIIIKVKPVKPPPPPPPKYDPDNGKPKASAG [r5_816_TrROS]	3.68 kcal/mol
SAGGSAGGPPGEPPDVKVIPIEIEHERYNPDDGEMEVETIPFPIVIAPDGTIYHGDRPIPPDDISAGGSAGG [r6_515_TrROS]	1.8 kcal/mol
SKGTFMAMMPLDEIKEIVENFAKQGWNIKIKPKSIQPFPFPHNDEDGEPEPYPMVMVEVEIKIVPPGDPPSA [r9_991_TrROS]	1.64 kcal/mol
SAGGSAKKTLKIKVKTPKGGLKTIEIPDSVKKIDIIPGKDYVKIIIYNPKTKKKIELPPFKVIEISSAGGSA [r15_133_TrMRF]	1.79 kcal/mol
SAGGSAGGSAGGGPSVAPFEVTELLSVSYVPGPRRFVAVVRLPDPERLVVVPVEDLPPGQSAGGSAGGSAGG [r7_304_TrMRF]	< -1 kcal/mol
SAGGSAGGSAGGSKKYKAKIVSVEYDEETKEVTIKVKLENGEEKTITMSLEELKEIELPSAGGSAGGSAGGS [r4_51_TrROS_Hall]	2.77 kcal/mol

Look at each sequence and report its folding stability dG unfold.
1. SDPGHKFKMEIVREIYLPGQIRIFVHKMEHPNGNPWVNVMVRNPDGQMEPIAMVPSDDPDAKDEALKLIKSA [r9_1069_TrROS]
2. SAGGSAGGSGGMRVIRTKLEETEFFEETGESRTFEGLVIVEKEIYLPPYPRYPVFRFDEEKEASAGGSAGGS [r12_140_JUSTAS]
3. SAGGMRVDYKSGKVIPEKTITIERTFSPEVVKTEEDAIELAKQEAEEAGLKDIDLKVELEGDKITVVGSAGG [r13_130_JUSTAS]
4. SAGGSAGGSAGIKVDQNPESNMFSVKIRNDGKEKTIEIDMPPGEPPDIDDLAKKLGIEVVSAGGSAGGSAGG [r11_1053_TrROS]
5. SAGGSAPARIVLPGGRTRTLRLSEISPELLAAFPDVLVRLPGGEVRRLPADTLLSLEGDYTLVVPGSAGGSA [r15_733_TrMRF]
6. SAGGSAGGSAGGLSPESFYTVEVYNKDGTKLGPAQVVSTGTGKVVIPIEPDVEIILNPSSAGGSAGGSAGGS [r10_1257_JUSTAS]
7. SAGGSAGGSAGEPKLILVEVEGYPDPESNLVYVEFPNGDIATFAVDSAAPDQPVLVLVNPSAGGSAGGSAGG [r11_621_TrMRF]

Response:
["0.391 kcal/mol", "-0.526 kcal/mol", "< -1 kcal/mol", "< -1 kcal/mol", "0.335 kcal/mol", "-0.136 kcal/mol", "0.28 kcal/mol"]

Batch lookup, folding stability dG unfold per entry.
1. SAKMTAEEIAAALAEELGLEVVEVVEVDEETGKITIRVDGKLIEITVVEEDGELKIEVRVVDEETGEELSAG [r14_270_TrROS_Hall]
2. SAGGFWLKNPNGHYIQVNVEVEWEPRRDPDNGKPTWEPKIEINVEVYDPNGEKRPIPEDQAKDLLKKLSAGG [r13_809_TrROS]
3. SAGGSAGGSAGGKVRVETDPERGYYKVKIRNPNNGRKIKVPVPMDDPKKAKKQAKELAKSAGGSAGGSAGGS [r10_1117_TrROS]

Response:
["1.36 kcal/mol", "1.31 kcal/mol", "< -1 kcal/mol"]

Each of the following entries comes with a recorded value; kindly state folding stability dG unfold for each.
1. SEVVFTLKDKPSPEELLKALAAVPGFSLETILKNTKVSPGKTGPKLTIKKEDFEKLEKENPEALEIIRSGSA [r9_160_TrMRF]
2. SAGPPKKVEIPVRYPFDGWEIMIQIDPKDPKIEIHVHNPEHRERAREYARTIARIFQENGIPVEIEPWSAGG [r19_354_TrROS]
3. SAGGGKTVVLVTHPDGTPTTITFDPEKPVATITYPDGTTETLPVPPDKTIADLAKALPADYTAVFAPASAGG [r13_696_TrMRF]
4. SAGGKKFYVEVKINLKDKTIYLIKEVKPGNLEKLIKEIEKKGIKEAGIDEIKIFPKDGYIEIKGGEKSAGGS [r8_219_TrMRF]
5. SAKKPLYLIIVKIGPDGKEIVIVAESEEEARKAAEEELRKLFPDLEIKEIKIIPLEKVKTKEEALELLKSAG [r14_900_TrROS_Hall]
6. KTYYLKAENAPFEEIVEKAREALEADPEEGAEIVIEVPGNPELLEKLDFDEIIPYDIPERPLYIVRAKAPPS [r1_467_TrMRF]

Response:
1. 1.09 kcal/mol
2. 1.73 kcal/mol
3. 0.419 kcal/mol
4. 0.801 kcal/mol
5. 1.89 kcal/mol
6. < -1 kcal/mol

Items follow; give folding stability dG unfold for each.
1. SAGGSAMPDLAAAPGVTRVEPYPDGLVEIHLDGSEEARDEIEERLRAAGDFEIYRLPDRDTLLVRASAGGSA [r15_554_TrMRF]
2. SSSSMKTVFDPNRPYPRTVLVTFLPDGTVVITAPGKKLSTVKVEIEPPPPLELRPRVSPNGERSPGYLRLGS [r1_496_JUSTAS]
3. SGRIKDVIMERDDNGGGNIMIMKLGNGEMEHIPPGEKLEIPLPPDDTLYLMVFDPNDGEPIETEEIKVDDSA [r9_209_TrROS]
4. SMEVKIELTDEEIEAALEAGYEVEIEVRVVEVEYDEETDEVTVKVEVTITIRPVPPPPEVVVDEETGEILSA [r9_396_TrROS_Hall]
5. SAGGSADENKKPMYFIMVKIEIKFGGKDHKIEIMIPLDNVEKLAKNIAEELGMEIKDVTVSLYPIDSAGGSA [r15_535_TrROS]

Response:
1: -0.025 kcal/mol; 2: 1.47 kcal/mol; 3: < -1 kcal/mol; 4: 1.27 kcal/mol; 5: 3.77 kcal/mol
